Tested on: Oryza sativa
experiment: Effect on Oryza sativa (rice) assessed as growth rate at 10 uM relative to control
Type: organism-based
stated.conditions: in vivo
Measured Activity, listed per entry for reference.
A number alone suffices; assume %.

Worked cases, answers included:
item.smiles: C[C@H](NC(=O)Nc1ccc(F)cc1F)c1ccccc1
quantity.name: Activity
result.number: 99
//
item.smiles: C[C@H](NC(=O)Nc1cccc(I)c1)c1ccccc1
quantity.name: Activity
result.number: 93
//
item.smiles: CCc1ccccc1NC(=O)N[C@H](C)c1ccccc1
quantity.name: Activity
result.number: 92

Memo: `CCOC(=O)c1ccc(NC(=O)N[C@H](C)c2ccccc2)cc1` , reported Activity: 92

For reference, reported Activity for `C[C@H](NC(=O)Nc1ccc(I)cc1)c1ccccc1` stands at 95

Given item `C[C@H](NC(=O)Nc1ccccc1Cl)c1ccccc1` , the value recorded as its Activity is 106

The compound listed as `C[C@H](NC(=O)Nc1ccccc1Br)c1ccccc1` has a reported Activity of 102

Value of measured Activity for the entry `CC(C)c1cccc(NC(=O)N[C@H](C)c2ccccc2)c1` : 44

The origin of these recorded values is ChEMBL document CHEMBL3045406.
